Entries with reported EC50 on primary human T-cells
parameter_measured: EC50 (nM)

// worked examples, EC50 included
{"columns": ["compound", "parameter_measured", "numeric_result"],
 "data": [
  ["Cc1cccc(-c2nnc(-c3cc4c(cc3F)S(=O)(=O)C[C@H](N)C(=O)N4Cc3ccc(Cl)cc3)o2)c1 [Example 107]", "EC50", 188],
  ["CC(C)(C)n1nnc(-c2cc3c(cc2F)[S+]([O-])C[C@H](N)C(=O)N3Cc2ccc(Cl)cc2)n1 (stereo partly shown) [Example 34]", "EC50", 5870],
  ["CN1CC(c2nc(-c3cc4c(cc3F)[S+]([O-])C[C@H](N)C(=O)N4Cc3ccc(Cl)cc3)no2)CC(F)(F)C1 (single isomer, unassigned; epimer b) [Example 343]", "EC50", 4830],
  ["N[C@H]1CS(=O)(=O)c2ccc(-c3nnc(C(F)(F)C(F)(F)F)o3)cc2N(Cc2ccc(Cl)cc2)C1=O [Example 363]", "EC50", 2170],
  ["CC(O)(c1nc(-c2cc3c(cc2F)S(=O)(=O)C[C@H](N)C(=O)N3Cc2ccc(Cl)cc2)no1)C(F)(F)F (stereo partly shown) [Example 319]", "EC50", 458],
  ["CN1CCC(c2nnc(-c3cc4c(cc3F)S(=O)(=O)C[C@H](N)C(=O)N4Cc3ccc(Cl)cc3)o2)C1 (stereo partly shown) [Example 144]", "EC50", 1820],
  ["C[C@@H](COC(F)(F)F)Nc1nnc(-c2cc3c(cc2F)S(=O)(=O)C[C@H](N)C(=O)N3Cc2ccc(Cl)cc2)o1 [Example 503]", "EC50", 3090],
  ["CC1(c2nnc(-c3cc4c(cc3F)S(=O)(=O)C[C@H](N)C(=O)N4Cc3ccc(Cl)cc3)o2)CCN(S(C)(=O)=O)CC1 [Example 170]", "EC50", 405],
  ["CC(N)(c1nc(-c2cc3c(cc2F)S(=O)(=O)C[C@H](N)C(=O)N3Cc2ccc(Cl)cc2)no1)C(F)(F)F (stereo partly shown) [Example 297]", "EC50", 169]
]}

[A] CN1CC(c2nnc(-c3ccc4c(c3)N(Cc3ccc(Cl)cc3)C(=O)[C@@H](N)CS4(=O)=O)o2)CC(F)(F)C1 (stereo partly shown) [Example 385]
[B] N[C@H]1CS(=O)(=O)c2cc(F)c(-c3nnc(C4CNCC(F)(F)C4)o3)cc2N(Cc2ccc(Cl)cc2)C1=O (stereo partly shown) [Example 160]
[C] N[C@H]1CS(=O)(=O)c2cc(F)c(-c3nnc(C4CCC(F)(F)CC4)o3)cc2N(Cc2ccc(Cl)cc2)C1=O [Example 73]
hey, can you rank those compounds up there by EC50? biggest number first please Returns: the labels listed in the requested order.
A, B, C

###

system: primary human T-cells;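 further: cd3-stimulated proliferation read by CellTiter-Glo after 5 days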
pEC50: −log10 of the molar value.
parameter_measured: pEC50

{"columns": ["smiles_string", "parameter_measured", "numeric_result"],
 "data": [
  ["CN[C@@H](C)C(=O)N[C@H]1CS(=O)(=O)c2cc(F)c(-c3nnc(C(C)(C)C)o3)cc2N(Cc2ccc(Cl)cc2)C1=O", "pEC50", 5.11]
]}

[a] CC(C)(CC(F)(F)F)Nc1nnc(-c2cc3c(cc2F)S(=O)(=O)C[C@H](N)C(=O)N3Cc2ccc(Cl)cc2)o1
[b] N[C@H]1CS(=O)(=O)c2cc(F)c(-c3noc(C4(C(F)(F)F)CC4)n3)cc2N(Cc2ccc(OC(F)(F)F)cc2)C1=O
Of a and b , which shows the smaller pEC50 value? Your answer should be the label attached to the chosen record.
a

Data provenance is patent US20240368150A1.
